- Tested on: MS2 coat protein
- test-protocol: apparent KD of MS2 coat protein; designed switch direction (-1 OFF switch, 1 ON switch): -1; higher = weaker reporter binding
- setup-conditions: input ligand: FMN 200 uM
Hi there, I'd appreciate the recorded apparent KD of MS2 coat protein for every entry that follows.
Numbers only, in nM.

macromolecule-sequence	observable	display-unit	meas-value
GUCAGACGAGGAUAUAAAUUUGAUAACAUGAGGAUCACCCAUGUGAUCGAUAGAUCAAAUUUAGAAGGUGUCUGAC [E5/7-B3] (Eterna round: R97, puzzle: Exclusion 5)	apparent KD of MS2 coat protein	nM	487
AGAUCACAUGAGGAUCACCCAUGUGAGGAUAUAGAUUCAAGAGCUUCGGCUCUACAGUCUAGAAGGCACUAUGA [EX1 #46] (Eterna round: R97, puzzle: Exclusion 1)	apparent KD of MS2 coat protein	nM	30.4

--- query ---
Any idea what its apparent KD of MS2 coat protein is? The sequence is ACCUCCGCGAAGGAUAUUAGCACAUUGACAGAUUGAGAAGGUCGCACAUGAGGAUCACCCAUGUGAGGUCAUCC [Eternabot (L1) Solution 82] (Eterna round: R97, puzzle: Exclusion 6)
19.3

---

For each of the sequences below, state its apparent KD of MS2 coat protein.
- Tested on: MS2 coat protein
- test-protocol: apparent KD of MS2 coat protein, switch ON state; designed switch direction (-1 OFF switch, 1 ON switch): -1; higher = weaker reporter binding
- setup-conditions: FMN input: 0 or 200 uM; Eterna round: R93 (includes R88 designs)
Answers are plain numbers, in nM.

In the examples that follow, each entry is paired with its recorded apparent KD of MS2 coat protein.
macromolecule-sequence	assay-target	apparent KD of MS2 coat protein (nM)
AAAAAGCGAGGAUAUACAUGAGGAUCACCCAUGUGAAAGUCGAAAAAAAAGACAAAAAGUAGAAGGCGCAAAAA [Banishment 7 - Jieux - Exclusion 3]	MS2 coat protein	18.3
UCCUCACAUGAGGAUCACCCAUGUGAGGAUAUCUGAAAAAAAAAAAAAAAAAAAAAUCAGAGAAGGCACAUGGG [Design 11: Super Stable Short Helix 1]	MS2 coat protein	37.1
AACAGUACAGGAUAUACAUGAGGAUCACCCAUGUAAAGGGAAAGUGGCGUACCACAAAGUAGAAGGGUACUGGA [Moding Maslow revisited (73) 5]	MS2 coat protein	40.1
UAUACGUGAGGAUAUGCGAAUACCACGUAAGACAUACAGACGCAGAAGGCACAUGAGGAUCACCCAUGUGAACC [JR_Exc004_Sub314]	MS2 coat protein	19.2
AAAUGCUGAGGAUAUACAUGAGGAUCACCCAUGUAAAAUAAAUAAUGAGUGUAAACGUGUAGAAGGCAGCAUAA [Exclusion 3.14c (FMN+ favored )]	MS2 coat protein	41.1

What reported apparent KD of MS2 coat protein corresponds to AAAGAUACAGGAUAUACAUGAGGAUCACCCAUGUGGAAUCAAAAAUGGGAAAAAGAAAGUAGAAGGGUAUAAAA [Ex 3 May 38] on MS2 coat protein?
30.6

---

- System: K4 kissing-loop RNA reporter;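 further: bound reporter read as fluorescence of individual clusters on recovered sequencing chips by microscopy, with normalized cluster intensities fitted with a binding model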
- test-protocol: apparent KD of K4 kissing-loop reporter; higher = weaker reporter binding
- setup-conditions: Eterna round: R107; input ligand: tryptophan 2.4 mM
Task for the reader: assign each of the following sequences its reported apparent KD of K4 kissing-loop reporter.
Answers are plain numbers, in nM.

macromolecule-sequence	display-unit	apparent KD of K4 kissing-loop reporter
GGUAUCUAUACAGAUACCAGUCGUACAGCACCAUUACAGGUUAGUGAUGUUAACCUGUACGACCCUUGGCAGCUGUAUUAUAAUA [#15 K4 Theophylline B Exclusion]	nM	85.2
GCCGUAGAUUGAAGGAGCGUUCUUACUGAUUACGGCAGCCGGAAGUGAUGUUUCCAGGUGGAACAGGUAGGUCGCAAUCUACGGC	nM	92
UUUAAAUAUAGUGAUGUUAUAUAACAAUGACGAGGACCGGUACGGCCGCCACUCGAGAGAGAUAAUGGUCUUACAAAUGUAAGUU [AstrosSSTryA#9]	nM	481

// for each sequence below, give its apparent KD of K4 kissing-loop reporter
1. UUCUUGAUGGAAACAUCGAGGAUUACUGAUACCAGUAUCGAUAGAUACCCUUGGCAGCAGUAUCGGUGAUCACGAGUGAUGUUCG [Ex Theophylline A K4 11]
2. UUUAGGAACUGAGGAUAUUCGAAGAAAUAUAGUGAUGUUAUAUAAGGAGGAGGAGGGAGGGAGGAAGGAGAAGGCAGAAGAGGAG [ExFMNB.E]
3. GGUGGCGUUGUUGACAGCUCACCACGAGCCAAGGAUAUAGUUUCUUCUAGAAGGUGGAAUGACAAGUGAUGUUUGUACGACUGCU [theeternabot_exclusion_KL_FMN_A_28]

1: 607; 2: 248; 3: 185
